Data origin: ChEMBL document CHEMBL1140016

- TARGET ENTITY: Beta-3 adrenergic receptor (Homo sapiens, UniProt P13945)
- Sequence (P13945 whole entry, looked up): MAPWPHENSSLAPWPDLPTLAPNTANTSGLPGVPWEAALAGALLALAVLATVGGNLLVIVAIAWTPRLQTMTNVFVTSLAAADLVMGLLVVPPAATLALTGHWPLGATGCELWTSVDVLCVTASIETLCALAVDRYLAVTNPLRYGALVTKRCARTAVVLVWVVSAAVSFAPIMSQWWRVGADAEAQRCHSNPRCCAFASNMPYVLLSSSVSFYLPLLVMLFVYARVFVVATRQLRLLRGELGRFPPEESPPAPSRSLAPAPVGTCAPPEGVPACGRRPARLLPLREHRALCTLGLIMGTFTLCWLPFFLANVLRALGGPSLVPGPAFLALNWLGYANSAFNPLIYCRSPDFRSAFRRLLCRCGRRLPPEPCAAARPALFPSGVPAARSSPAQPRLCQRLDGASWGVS
- ASSAY TEXT: Intrinsic activity at human cloned adrenergic beta3 receptor expressed in CHO cells assessed as cAMP accumulation relative to isoproterenol
- Assay type: functional, cell-based
Note: every record was labeled by where its Intrinsic activity sits among low interval = under 50%, middle interval = from 50% up to 70%, high interval = 70% and over

Query block: Assign a bin to COc1ccc([C@@H](Cc2ccccc2)NC[C@H](O)Cc2ccc(O)c(NS(C)(=O)=O)c2)cc1OC
Result block: low interval

* * *

- TARGET ENTITY: Beta-3 adrenergic receptor (Homo sapiens, UniProt P13945)
- ASSAY TEXT: Intrinsic activity at human cloned adrenergic beta3 receptor expressed in CHO cells assessed as cAMP accumulation relative to isoproterenol
- Format: functional, cell-based
RECORDED ENDPOINT: Intrinsic activity (%)
Your answer should be a plain number; it is taken to be in %.

- MOLECULE: "COc1ccc([C@@H](Cc2ccccc2Cl)NC[C@@H](O)Cc2ccc(O)c(NS(C)(=O)=O)c2)cc1OC"
  TARGET ENTITY: "Beta-3 adrenergic receptor (Homo sapiens, UniProt P13945)"
  QUANTITY UNIT: "%"
  Intrinsic activity: 65

Proceed to the following item.
Query block: Hello, I am looking for reported Intrinsic activity with Beta-3 adrenergic receptor (Homo sapiens, UniProt P13945) for COc1ccc([C@H](NC[C@H](O)c2ccc(O)c(NS(C)(=O)=O)c2F)C(=O)Nc2ccccc2)cc1 . Could you help?
Result block: 58
